Origin of measurements: patent US20160009752A1

Experiment: Pharmacokinetic study after oral and intravenous dose in rats
Type: in vivo
Conditions: plasma; oral route, rat
Source text: In order to study its bioavailability, the method of its quantitative determination in plasma matrices in rat was developed and validated. […] The method was applied in the analysis of PK samples obtained after oral and intravenous dose administration in rats.
measured-endpoint: bioavailability
Answer with the figure and its unit, nothing else.

Which bioavailability value is on record for C/C(=N\OCCN1CCCCC1)[C@H]1CC[C@H]2[C@@H]3CC=C4C[C@@H](O)CC[C@]4(C)[C@H]3CC[C@]12C [Compound 14b] ?
33.6%

###

experiment: Pharmacokinetic study after oral and intravenous dose in rats; format: in vivo; settings: plasma; oral route, rat
measured-endpoint: CL/F (mL/min/kg)
Field: numeric (mL/min/kg). Do not append units.

Which CL/F value is on record for C/C(=N\OCCN1CCCCC1)[C@H]1CC[C@H]2[C@@H]3CC=C4C[C@@H](O)CC[C@]4(C)[C@H]3CC[C@]12C [Compound 14b] ?
603

###

Assay: Pharmacokinetic study after oral and intravenous dose in rats
Type: in vivo
Conditions: plasma; rat, route not stated; read-out: elimination half-life
Excerpt: In order to study its bioavailability, the method of its quantitative determination in plasma matrices in rat was developed and validated. […] The method was applied in the analysis of PK samples obtained after oral and intravenous dose administration in rats.
measured-endpoint: half-life

Which half-life value is on record for C/C(=N\OCCN1CCCCC1)[C@H]1CC[C@H]2[C@@H]3CC=C4C[C@@H](O)CC[C@]4(C)[C@H]3CC[C@]12C [Compound 14b] ?
> 14 h

###

Quick reference for melting point among some molecules

Which melting point value is on record for COc1ccccc1N1CCN(CC(O)CO/N=C(/C)C2CCC3C4CC=C5CC(O)CCC5(C)C4CCC23C)CC1 (stereo not shown) [Compound 16d] ?
145 to 149 °C

Which melting point value is on record for C/C(=N\OCCN1CCCC1)[C@H]1CC[C@H]2[C@@H]3CC=C4C[C@@H](O)CC[C@]4(C)[C@H]3CC[C@]12C [Compound 14a] ?
140 to 142 °C

Which melting point value is on record for C/C(=N\OCCN1CCCCC1)[C@H]1CC[C@H]2[C@@H]3CC=C4C[C@@H](O)CC[C@]4(C)[C@H]3CC[C@]12C [Compound 14b] ?
130 to 135 °C

Here is the next item to consider.
Which melting point value is on record for CCN(CC)CCO/N=C(\C)C1=CC[C@H]2[C@@H]3CC=C4C[C@@H](O)CC[C@]4(C)[C@H]3CC[C@]12C [Compound 11d] ?
156 to 160 °C

###

assay: Pharmacokinetic study after oral and intravenous dose in rats; assay type: in vivo; conditions: plasma; intravenous route, rat; read-out: T1/2 (converted)
measured-endpoint: half-life (h)
Field: numeric (h). Do not append units.

Which half-life value is on record for C/C(=N\OCCN1CCCCC1)[C@H]1CC[C@H]2[C@@H]3CC=C4C[C@@H](O)CC[C@]4(C)[C@H]3CC[C@]12C [Compound 14b] ?
15.4

###

assay: Pharmacokinetic study after oral and intravenous dose in rats; assay type: in vivo; design: unit not given here; settings: plasma; intravenous route, rat; read-out: Vz
measured-endpoint: Vd
Please reply with the number alone, leaving off any unit.

Which Vd value is on record for C/C(=N\OCCN1CCCCC1)[C@H]1CC[C@H]2[C@@H]3CC=C4C[C@@H](O)CC[C@]4(C)[C@H]3CC[C@]12C [Compound 14b] ?
268

###

measured-endpoint: melting point

Which melting point value is on record for C/C(=N\OCC(O)CNC(C)(C)C)[C@H]1CC[C@H]2[C@@H]3CC=C4C[C@@H](O)CC[C@]4(C)[C@H]3CC[C@]12C (stereo partly drawn) [Compound 16a] ?
> 200 °C

Which melting point value is on record for C/C(=N\OCCN1CCCCC1)C1=CC[C@H]2[C@@H]3CC=C4C[C@@H](O)CC[C@]4(C)[C@H]3CC[C@]12C [Compound 11a] ?
135 to 138 °C

Here is the next item to consider.
Which melting point value is on record for C/C(=N\OCCN1CCCCCC1)C1=CC[C@H]2[C@@H]3CC=C4C[C@@H](O)CC[C@]4(C)[C@H]3CC[C@]12C [Compound 11b] ?
127 to 130 °C

###

test: Pharmacokinetic study after oral and intravenous dose in rats; type: in vivo; settings: plasma; oral route, rat
measured-endpoint: AUC(0-inf)
Answer with the figure and its unit, nothing else.

Which AUC(0-inf) value is on record for C/C(=N\OCCN1CCCCC1)[C@H]1CC[C@H]2[C@@H]3CC=C4C[C@@H](O)CC[C@]4(C)[C@H]3CC[C@]12C [Compound 14b] ?
1210 ng·h/mL

###

assay: Pharmacokinetic study after oral and intravenous dose in rats; type: in vivo; parameters: unit not given here; conditions: plasma; oral route, rat; read-out: Vz/F
measured-endpoint: Vd/F

Which Vd/F value is on record for C/C(=N\OCCN1CCCCC1)[C@H]1CC[C@H]2[C@@H]3CC=C4C[C@@H](O)CC[C@]4(C)[C@H]3CC[C@]12C [Compound 14b] ?
739

###

assay: Pharmacokinetic study after oral and intravenous dose in rats; assay type: in vivo; conditions: plasma; intravenous route, rat
measured-endpoint: AUC(0-t) (ng·h/mL)
Field: numeric (ng·h/mL). Do not append units.

Which AUC(0-t) value is on record for C/C(=N\OCCN1CCCCC1)[C@H]1CC[C@H]2[C@@H]3CC=C4C[C@@H](O)CC[C@]4(C)[C@H]3CC[C@]12C [Compound 14b] ?
826

###

assay: Pharmacokinetic study after oral and intravenous dose in rats; type: in vivo; conditions: plasma; oral route, rat
measured-endpoint: MRT (h)
Field: numeric (h). Do not append units.

Which MRT value is on record for C/C(=N\OCCN1CCCCC1)[C@H]1CC[C@H]2[C@@H]3CC=C4C[C@@H](O)CC[C@]4(C)[C@H]3CC[C@]12C [Compound 14b] ?
23.2

###

assay: Pharmacokinetic study after oral and intravenous dose in rats; type: in vivo; details: plasma; intravenous route, rat
measured-endpoint: C0
Answer with the figure and its unit, nothing else.

Which C0 value is on record for C/C(=N\OCCN1CCCCC1)[C@H]1CC[C@H]2[C@@H]3CC=C4C[C@@H](O)CC[C@]4(C)[C@H]3CC[C@]12C [Compound 14b] ?
166 ng/mL

###

Test: Pharmacokinetic study after oral and intravenous dose in rats
Format: in vivo
Conditions: plasma; oral route, rat
Text: In order to study its bioavailability, the method of its quantitative determination in plasma matrices in rat was developed and validated. […] The method was applied in the analysis of PK samples obtained after oral and intravenous dose administration in rats.
measured-endpoint: Cmax
Answer with the figure and its unit, nothing else.

Which Cmax value is on record for C/C(=N\OCCN1CCCCC1)[C@H]1CC[C@H]2[C@@H]3CC=C4C[C@@H](O)CC[C@]4(C)[C@H]3CC[C@]12C [Compound 14b] ?
40.4 ng/mL
